species on record: Homo sapiens; assay: Selectivity for human tryptase compared to human tissue plasminogen activator tissue.
The molecules listed here are annotated with their Selectivity ratio.
The answer should be written as a number, with no unit following it.

Molecule | Selectivity ratio
CC(C)(C)OC(=O)N1CCN(C(=O)N2C(=O)[C@H](CCCN=C(N)N)[C@H]2C(N)=O)CC1 (single isomer, unassigned) | 8300
N=C(N)NCCC[C@H]1C(=O)N(C(=O)c2cccs2)[C@@H]1C(=O)O | 109
CC(C)(C)OC(=O)N1CCN(C(=O)N2C(=O)[C@H](CCCN=C(N)N)[C@H]2C(=O)N2CCCCC2)CC1 | 4430
N=C(N)NCCC[C@H]1C(=O)N(S(=O)(=O)c2ccc(-c3ccccc3)cc2)[C@@H]1C(=O)O | 4370

Next item in the queue.
Data point: "N=C(N)NCCC[C@H]1C(=O)N(C(=O)N2CCN(C(=O)OCCc3ccccc3)CC2)[C@@H]1C(=O)O" ; Selectivity ratio = 14200

====

species: Homo sapiens; assay: Selectivity for human tryptase compared to human tissue plasminogen activator tissue.
Readout Label: Selectivity ratio
Give the figure only, with no unit attached.

Substance Smiles | Selectivity ratio
N=C(N)NCCC[C@H]1C(=O)N(C(=O)c2ccc(-c3ccccc3)cc2)[C@@H]1C(=O)O | 1610

Please look at the following compound next.
Record "N=C(N)NCCC[C@H]1C(=O)N(C(=O)c2ccccc2)[C@@H]1C(=O)O" . Reported Selectivity ratio: 128

====

Catalogue of Selectivity ratio readings, one per entry.
organism: Homo sapiens; experiment: Selectivity for human tryptase compared to human urokinase plasminogen activator.

Compound | Value Observed
CC(C)(C)CC(=O)N1CCN(C(=O)N2C(=O)[C@H](CCCN=C(N)N)[C@H]2C(=O)O)CC1 | 8
N=C(N)NCCC[C@H]1C(=O)N(C(=O)c2ccc(-c3ccccc3)cc2)[C@@H]1C(=O)O | 3270
N=C(N)NCCC[C@H]1C(=O)N(C(=O)c2ccccc2)[C@@H]1C(=O)O | 3
CC(C)(C)OC(=O)N1CCN(C(=O)N2C(=O)[C@H](CCCN=C(N)N)[C@H]2C(N)=O)CC1 (single isomer, unassigned) | 82
CC(C)(C)C(=O)N1CCN(C(=O)N2C(=O)[C@H](CCCN=C(N)N)[C@H]2C(=O)O)CC1 | 154
CCN(CC)C(=O)N1CCN(C(=O)N2C(=O)[C@H](CCCN=C(N)N)[C@H]2C(=O)O)CC1 | 520

The compound listed as N=C(N)NCCC[C@H]1C(=O)N(C(=O)Nc2ccccc2)[C@@H]1C(=O)O (stereo in doubt; 8a) shows Selectivity ratio equal to 3

====

species on record: Homo sapiens; experiment: Selectivity for human tryptase compared to human trypsin.
Please note: Selectivity ratio exactly at 2 is Not fulfilled. Only values below 2 get Fulfilled.

Substance Smiles | Category Label
N=C(N)NCCC[C@H]1C(=O)N(C(=O)N2CCN(C(=O)c3ccccc3)CC2)[C@@H]1C(=O)O | Fulfilled
N=C(N)NCCC[C@H]1C(=O)N(C(=O)c2ccccc2)[C@@H]1C(=O)O | Fulfilled
CCN(CC)C(=O)N1CCN(C(=O)N2C(=O)[C@H](CCCN=C(N)N)[C@H]2C(=O)O)CC1 | Not fulfilled
CC(C)(C)NC(=O)N1CCN(C(=O)N2C(=O)[C@H](CCCN=C(N)N)[C@H]2C(=O)O)CC1 | Not fulfilled
CC(C)(C)OC(=O)N1CCN(C(=O)N2C(=O)[C@H](CCCN=C(N)N)[C@H]2C(=O)N2CCCCC2)CC1 | Fulfilled

Ask | Please determine if "CC(C)(C)C(=O)N1CCN(C(=O)N2C(=O)[C@H](CCCN=C(N)N)[C@H]2C(=O)O)CC1" is below 2 in terms of Selectivity ratio.
Reply | Not fulfilled

Ask | Does the reported Selectivity ratio of the following compound sit strictly below 2? "N=C(N)NCCC[C@H]1C(=O)N(C(=O)N2CCN(C(=O)OCCc3ccccc3)CC2)[C@@H]1C(=O)O"
Reply | Not fulfilled
